All figures here come from the supplement of paper PMC5998384.

Tested on: HeLa Kyoto
Assay: melting temperature (median over replicates), in situ; higher = more thermally stable
Settings: cell cycle stage: G1/S
Measure: melting temperature
Could you write the number and then its unit?

Some solved entries appear below for comparison.
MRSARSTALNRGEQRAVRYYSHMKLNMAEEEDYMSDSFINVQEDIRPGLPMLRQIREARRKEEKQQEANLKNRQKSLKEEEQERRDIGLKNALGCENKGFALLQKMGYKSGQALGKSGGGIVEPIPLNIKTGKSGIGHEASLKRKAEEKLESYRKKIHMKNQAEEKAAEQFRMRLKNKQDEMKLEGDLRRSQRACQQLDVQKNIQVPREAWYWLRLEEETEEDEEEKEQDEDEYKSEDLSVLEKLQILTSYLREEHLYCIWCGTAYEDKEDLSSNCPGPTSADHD [GPATCH11]    52.1 °C
MAFVTRQFMRSVSSSSTASASAKKIIVKHVTVIGGGLMGAGIAQVAAATGHTVVLVDQTEDILAKSKKGIEESLRKVAKKKFAENLKAGDEFVEKTLSTIATSTDAASVVHSTDLVVEAIVENLKVKNELFKRLDKFAAEHTIFASNTSSLQITSIANATTRQDRFAGLHFFNPVPVMKLVEVIKTPMTSQKTFESLVDFSKALGKHPVSCKDTPGFIVNRLLVPYLMEAIRLYERGDASKEDIDTAMKLGAGYPMGPFELLDYVGLDTTKFIVDGWHEMDAENPLHQPSPSLNKLVAENKFGKKTGEGFYKYK [HADH]    53.4 °C

// map MWHSVGLTLLVFVATLLIVLLLMVCGWYFVWHLFLSKFKFLRELVGDTGSQEGDHEPSGSETEEDTSSSPHRIRSARQRRAPADEGHRPLT [SMIM13] to recorded melting temperature (system: HeLa Kyoto)
55.5 °C

Also need MGRSRSRSSSRSKHTKSSKHNKKRSRSRSRSRDKERVRKRSKSRESKRNRRRESRSRSRSTNTAVSRRERDRERASSPPDRIDIFGRTVSKRSSLDEKQKREEEEKKAEFERQRKIRQQEIEEKLIEEETARRVEELVAKRVEEELEKRKDEIEREVLRRVEEAKRIMEKQLLEELERQRQAELAAQKAREEEERAKREELERILEENNRKIAEAQAKLAEEQLRIVEEQRKIHEERMKLEQERQRQQKEEQKIILGKGKSRPKLSFSLKTQD [ARGLU1] , thanks.
51 °C

Repeat for the following sequence: MRRMWATQGLAVALALSVLPGSRALRPGDCEVCISYLGRFYQDLKDRDVTFSPATIENELIKFCREARGKENRLCYYIGATDDAATKIINEVSKPLAHHIPVEKICEKLKKKDSQICELKYDKQIDLSTVDLKKLRVKELKKILDDWGETCKGCAEKSDYIRKINELMPKYAPKAASARTDL [MANF]
54.1 °C

Another sequence to look at: MVLSELAARLNCAEYKNWVKAGHCLLLLRSCLQGFVGREVLSFHRGLLAAAPGLGPRAVCRGGSRCSPRARQFQPQCQVCAEWKREILRHHVNRNGDVHWGNCRPGRWPVDAWEVAKAFMPRGLADKQGPEECDAVALLSLINSCDHFVVDRKKVTEVIKCRNEIMHSSEMKVSSTWLRDFQMKIQNFLNEFKNIPEIVAVYSRIEQLLTSDWAVHIPEEDQRDGCECEMGTYLSESQVNEIEMQLLKEKLQEIYLQAEEQEVLPEELSNRLEVVKEFLRNNEDLRNGLTEDMQKLDSLCLHQKLDSQEPGRQTPDRKA [CXORF38]
52.5 °C

Would you mind doing MRALRAGLTLASGAGLGAVVEGWRRRREDARAAPGLLGRLPVLPVAAAAELPPVPGGPRGPGELAKYGLPGLAQLKSRESYVLCYDPRTRGALWVVEQLRPERLRGDGDRRECDFREDDSVHAYHRATNADYRGSGFDRGHLAAAANHRWSQKAMDDTFYLSNVAPQVPHLNQNAWNNLEKYSRSLTRSYQNVYVCTGPLFLPRTEADGKSYVKYQVIGKNHVAVPTHFFKVLILEAAGGQIELRTYVMPNAPVDEAIPLERFLVPIESIERASGLLFVPNILARAGSLKAITAGSK [ENDOG] as well?
51.8 °C

Same again, this time with MAGVACLGKAADADEWCDSGLGSLGPDAAAPGGPGLGAELGPGLSWAPLVFGYVTEDGDTALHLAVIHQHEPFLDFLLGFSAGTEYMDLQNDLGQTALHLAAILGETSTVEKLYAAGAGLCVAERRGHTALHLACRVGAHACARALLQPRPRRPREAPDTYLAQGPDRTPDTNHTPVALYPDSDLEKEEEESEEDWKLQLEAENYEGHTPLHVAVIHKDVEMVRLLRDAGADLDKPEPTCGRSPLHLAVEAQAADVLELLLRAGANPAARMYGGRTPLGSAMLRPNPILARLLRAHGAPEPEGEDEKSGPCSSSSDSDSGDEGDEYDDIVVHSSRSQTRLPPTPASKPLPDDPRPV [NFKBIB]
49.3 °C

Same for MEALPLLAATTPDHGRHRRLLLLPLLLFLLPAGAVQGWETEERPRTREEECHFYAGGQVYPGEASRVSVADHSLHLSKAKISKPAPYWEGTAVIDGEFKELKLTDYRGKYLVFFFYPLDFTFVCPTEIIAFGDRLEEFRSINTEVVACSVDSQFTHLAWINTPRRQGGLGPIRIPLLSDLTHQISKDYGVYLEDSGHTLRGLFIIDDKGILRQITLNDLPVGRSVDETLRLVQAFQYTDKHGEVCPAGWKPGSETIIPDPAGKLKYFDKLN [PRDX4]
58.4 °C

Now consider MSEVTRSLLQRWGASFRRGADFDSWGQLVEAIDEYQILARHLQKEAQAQHNNSEFTEEQKKTIGKIATCLELRSAALQSTQSQEEFKLEDLKKLEPILKNILTYNKEFPFDVQPVPLRRILAPGEEENLEFEEDEEEGGAGAGSPDSFPARVPGTLLPRLPSEPGMTLLTIRIEKIGLKDAGQCIDPYITVSVKDLNGIDLTPVQDTPVASRKEDTYVHFNVDIELQKHVEKLTKGAAIFFEFKHYKPKKRFTSTKCFAFMEMDEIKPGPIVIELYKKPTDFKRKKLQLLTKKPLYLHLHQTLHKE [AIDA] and answer again.
50.9 °C

---

Below: a set of entries, each annotated with reported thermal stability score.
System: HeLa Kyoto
Test: thermal stability score vs G1/S (z-score of summed log2 fold changes over temperatures); higher = more thermally stable than in G1/S
Conditions: cell cycle stage: early G1 (4.5 h after nocodazole release)
Number only, please.

Use the examples below as a reference point.
MWSAGRGGAAWPVLLGLLLALLVPGGGAAKTGAELVTCGSVLKLLNTHHRVRLHSHDIKYGSGSGQQSVTGVEASDDANSYWRIRGGSEGGCPRGSPVRCGQAVRLTHVLTGKNLHTHHFPSPLSNNQEVSAFGEDGEGDDLDLWTVRCSGQHWEREAAVRFQHVGTSVFLSVTGEQYGSPIRGQHEVHGMPSANTHNTWKAMEGIFIKPSVEPSAGHDEL [SDF2L1]    4.06
MGDKIWLPFPVLLLAALPPVLLPGAAGFTPSLDSDFTFTLPAGQKECFYQPMPLKASLEIEYQVLDGAGLDIDFHLASPEGKTLVFEQRKSDGVHTVETEVGDYMFCFDNTFSTISEKVIFFELILDNMGEQAQEQEDWKKYITGTDILDMKLEDILESINSIKSRLSKSGHIQTLLRAFEARDRNIQESNFDRVNFWSMVNLVVMVVVSAIQVYMLKSLFEDKRKSRT [TMED5]    2.08
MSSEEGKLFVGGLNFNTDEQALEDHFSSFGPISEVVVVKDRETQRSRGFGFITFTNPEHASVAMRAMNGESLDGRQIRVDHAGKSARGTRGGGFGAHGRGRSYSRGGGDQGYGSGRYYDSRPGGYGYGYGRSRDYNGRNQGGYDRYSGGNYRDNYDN [RBM3]    -2.01
MTVARPSVPAALPLLGELPRLLLLVLLCLPAVWGDCGLPPDVPNAQPALEGRTSFPEDTVITYKCEESFVKIPGEKDSVICLKGSQWSDIEEFCNRSCEVPTRLNSASLKQPYITQNYFPVGTVVEYECRPGYRREPSLSPKLTCLQNLKWSTAVEFCKKKSCPNPGEIRNGQIDVPGGILFGATISFSCNTGYKLFGSTSSFCLISGSSVQWSDPLPECREIYCPAPPQIDNGIIQGERDHYGYRQSVTYACNKGFTMIGEHSIYCTVNNDEGEWSGPPPECRGKSLTSKVPPTVQKPTTVNVPTTEVSPTSQKTTTKTTTPNAQATRSTPVSRTTKHFHETTPNKGSGTTSGTTRLLSGHTCFTLTGLLGTLVTMGLLT [CD55]    -1.88
MERPDKAALNALQPPEFRNESSLASTLKTLLFFTALMITVPIGLYFTTKSYIFEGALGMSNRDSYFYAAIVAVVAVHVVLALFVYVAWNEGSRQWREGKQD [VMA21]    -1.79

Moving on to the next sequence.
Requested field: thermal stability score. Item: MAAVLKPVLLGLRDAPVHGSPTGPGAWTASKLGGIPDALPTVAAPRPVCQRCGQPLALVVQVYCPLEGSPFHRLLHVFACACPGCSTGGARSWKVFRSQCLQVPEREAQDAQKQGNSLAAEDWCEGADDWGSDTEEGPSPQFTLDFGNDASSAKDVDWTARLQDLRLQDAVLGAAHPVPPGLPLFLPYYICVADEDDYRDFVNLDHAHSLLRDYQQREGIAMDQLLSQSLPNDGDEKYEKTIIKSGDQTFYKFMKRIAACQEQILRYSWSGEPLFLTCPTSEVTELPACSQCGGQRIFEFQLMPALVSMLKSANLGLSVEFGTILVYTCEKSCWPPNHQTPMEEFCIIQEDPDELLFK [PDCD2L]
0.0844
